- TESTED_TARGET: Amylin 3(a) receptor (human calcitonin receptor (CTa) with RAMP-3) (Homo sapiens, UniProt O60896+P30988)
- Construct: expressed in transfected cells; host or cells: BHK570 (baby hamster kidney) cells, stably transfected, with CRE-luciferase reporter
- Sequence (O60896 24-148): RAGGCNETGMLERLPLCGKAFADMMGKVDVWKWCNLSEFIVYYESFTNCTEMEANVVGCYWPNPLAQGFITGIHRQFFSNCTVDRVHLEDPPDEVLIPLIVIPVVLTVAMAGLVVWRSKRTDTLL
- Sequence (P30988 25-474): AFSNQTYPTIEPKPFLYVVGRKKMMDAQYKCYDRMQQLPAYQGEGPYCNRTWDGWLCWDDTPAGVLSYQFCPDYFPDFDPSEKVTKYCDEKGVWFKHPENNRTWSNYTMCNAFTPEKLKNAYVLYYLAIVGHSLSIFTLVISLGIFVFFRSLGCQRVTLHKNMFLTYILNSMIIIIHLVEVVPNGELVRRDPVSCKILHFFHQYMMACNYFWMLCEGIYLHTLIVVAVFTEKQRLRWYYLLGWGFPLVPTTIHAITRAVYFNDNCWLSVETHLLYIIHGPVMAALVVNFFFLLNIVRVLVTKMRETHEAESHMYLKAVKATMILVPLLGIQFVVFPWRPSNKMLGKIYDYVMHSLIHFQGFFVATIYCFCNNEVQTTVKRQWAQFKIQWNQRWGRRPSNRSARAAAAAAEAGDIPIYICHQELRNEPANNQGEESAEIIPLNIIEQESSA
- ASSAY_EXPLANATION: Amylin luciferase assay (CRE-luciferase reporter in BHK Amylin 3(a)//CRE-luc cells)
- Type: cell-based
- TEST_PARAMETERS: BHK570 cells with human calcitonin receptor (CTa), RAMP-3 and CRE-luciferase reporter; 4 hours incubation; read-out: Potency luciferase assay
pEC50: −log10 of the molar value. Positions of bridges follow the written chain, without caps; N, C: chain ends. Non-standard residues stand in square brackets, D forms with d. *: point of attachment. C20 diacid = O=C(O)CCCCCCCCCCCCCCCCCCC(=O)*; AEEA = NCCOCCOCC(=O)O
MEASURED_QUANTITY: pEC50

SUBSTANCE: {C20 diacid}-EER[AEEA]ECNTATCATQRLANFLVHSSNNFGPILPPTNVGSNTY-NH2 (disulfide 6-11; C-terminus assumed) [Example 44]
MEASURED_QUANTITY: pEC50
RECORDED_MEASUREMENT: 9.40
